Source of measurements: ChEMBL document CHEMBL1201862

# Tested on: RPMI-8226
# Assay Notes: NCI tumour cell line growth inhibition, 48 h
Activity calls are given as the source filed them. No stated cut-off is given here; in the data, active = GI50 up to about 1.1 µM and inactive = higher.
I'd appreciate it if you could supply GI50 values for the items below.

COC(=O)C1OC(O[C@H]2CC[C@]3(C)[C@H]4CC=C5[C@@H]6CC(C)(C)CC[C@]6(C(=O)OC6OCC(O)C(O)C6OC6OC(C)C(OC7OCC(OC8OCC(O)C(O)C8O)C(O)C7O)C(O)C6O)[C@H](O)C[C@@]5(C)[C@]4(C)CC[C@H]3C2(C)C)C(O)C(O)C1O (stereo partly drawn) : 5.5 µM (inactive)
CCCCNC(=O)NNC(=O)c1cc(/C=C/c2cccc([N+](=O)[O-])c2)ncn1 : 25.4 µM (inactive)

Next compound, GI50 to be filled in.
Q: Give the measured GI50 of CC1CC[C@@]2(OC1)O[C@H]1C[C@H]3[C@@H]4CC[C@H]5C[C@@H](OC6OC(CO)C(OC7OC(CO)C(OC8OC(CO)C(O)C(OC9OC(C)C(OC%10OC(C)C(O)C(O)C%10O)C(O)C9O)C8OC8OCC(O)C(O)C8O)C(O)C7O)C(O)C6O)CC[C@]5(C)[C@H]4CC(=O)[C@]3(C)[C@H]1[C@@H]2C (stereo partly drawn) .
Ans: 16.2 µM (inactive)

====

# Tested on: ACHN
# Assay Notes: NCI tumour cell line growth inhibition, 48 h
The source made the active and inactive calls. No stated cut-off is given here; in the data, active = GI50 up to about 1.1 µM and inactive = higher.
I'd appreciate it if you could supply GI50 values for the items below.

Answered cases to consult:
Nc1cccc(S(=O)(=O)NCC(=O)O)c1 : > 100 µM (inactive)
NS(=O)(=O)c1nnc(NS(=O)(=O)c2ccc([N+](=O)[O-])cc2)s1 : > 100 µM (inactive)
Oc1ccc[nH]c1=[Se] : 48.6 µM (inactive)
CC(C)CC(NC(=O)c1cccc(O)c1O)C(=O)NCc1cc(CNC(=O)C(CC(C)C)NC(=O)c2cccc(O)c2O)cc(CNC(=O)C(CC(C)C)NC(=O)c2cccc(O)c2O)c1 (configuration not stated) : 22.2 µM (inactive)
COS(=O)(=O)OCCC(NC(=O)OCc1ccccc1)C(=O)OCc1ccccc1 (configuration not stated) : > 100 µM (inactive)
CC(=O)OCC(OC(C)=O)C(OC(C)=O)C(/C=N/N(C(C)=O)S(=O)(=O)c1ccc(/C=C2\NC(=O)NC2=O)cc1)OC(C)=O (configuration not stated) : > 100 µM (inactive)
CCOC(=O)/C(C#N)=C/N(CC)/N=C/c1ccccc1 : > 100 µM (inactive)
COc1ccc(N2C(=O)[C@H]3CC(C)c4c([nH]c5ccccc45)[C@H]3C2=O)cc1 (some centres not stated) : 6.92 µM (inactive)
Cc1ccnc(NS(=O)(=O)c2ccc(NC3=CC(=O)C(=O)c4ccccc43)cc2)n1 : > 100 µM (inactive)
CCN(CC)c1ccc(NC(=S)NN(C)C)cc1 : > 10 µM (inactive)

For each entry beneath this line, provide reported GI50.
1. NC(=O)CCC(NCc1c2ccccc2[n+]([O-])c2ccccc12)C(=O)O (configuration not stated)
2. O=C(O)CCCc1ccc2c(c1)CC1(C2)Cc2cc3c(cc2C1)CCCC3
3. O=C1C(NCCO)=C(N2CC2)C(=O)C(NCCO)=C1N1CC1

Ans:
1. 78 µM (inactive)
2. 17 µM (inactive)
3. 30.8 µM (inactive)

For each entry beneath this line, provide reported GI50.
1. CC(=O)OCCCCn1nncc1Cn1ccc(=O)n(Cc2cnnn2CCCCOC(C)=O)c1=O
2. C=CC(C)(C)n1cc(C2=C3OC(=O)C(c4cn(C(C)(C)C=C)c5ccccc45)=C3OC2=O)c2ccccc21

Ans:
1. > 100 µM (inactive)
2. > 100 µM (inactive)

For each entry beneath this line, provide reported GI50.
1. COc1cc(/C=C\c2nnc(/C=C\c3ccc(O)c(OC)c3)s2)ccc1O
2. CN1CCN(c2ccncc2S(=O)(=O)N2CCN(C)CC2)CC1
3. CC(C)CCC[C@@H](C)C1CCC2[C@@H]3CC=C4C[C@@H](C(=O)NCCN(C)C)CC[C@]4(C)C3CC[C@@]21C (some centres not stated)
4. CCOC(=O)C(Cc1ccc(N=NN(C)C)cc1)NC(=O)CC1c2ccccc2-c2ccccc21 (configuration not stated)
5. O=c1cc(-c2ccccc2)c2cc3c(=O)ccoc3cc2o1
6. CC(=O)C1Cn2c(=O)c3cc4ccccc4cc3c(=O)n2C=C1C (configuration not stated)
7. Cc1cc(=O)oc2c(CN3CCCCC3)c(O)ccc12
8. CCN1N=CSC12C(=O)N(c1ccccc1)C(=O)N2c1ccccc1 (configuration not stated)

Ans:
["3.61 µM (inactive)", "> 100 µM (inactive)", "35.8 µM (inactive)", "35.6 µM (inactive)", "87.9 µM (inactive)", "> 100 µM (inactive)", "> 100 µM (inactive)", "> 100 µM (inactive)"]
